Every entry's value here was drawn from PubChem BioAssay (NCI).

Let's look at some molecules and their measured TGI.
- Test system: HOP-62 NSCLC
- protocol.text: NCI tumour cell line growth inhibition, 48 h
Where a SMILES comes first, the peptide text is derived from it. [ ]: non-standard residue; d: D form. Ava = NCCCCC(=O)O; Mpa = O=C(O)CCS
result.type: TGI

INSERT INTO measurements (molecule, reported_value) VALUES
  ('Nc1cc(CO)cc(Nc2c3ccccc3nc3ccccc23)c1', '28.8 µM'),
  ('CC(NCCN(C)C)C1CCC2C3CCc4cc(O)ccc4C3CCC12C (centres undefined)', '8.7 µM'),
  ('Nc1cc(C2CCCc3c2[nH]c2ccccc32)ccc1O (centres undefined)', '> 100 µM'),
  ('CCCCn1c(=O)[nH]c2c(N)ncnc21', '> 100 µM'),
  ('CC(NC(=O)CCS)C(=O)NC(C)C(=O)NC(Cc1c[nH]c2ccccc12)C(=O)NC(Cc1c[nH]cn1)C(=O)NC(CO)C(=O)NC(Cc1c[nH]c2ccccc12)C(=O)NCCCCC(=O)NC(C)C(=O)NC(CCC(N)=O)C(=O)NC(CCCCN)C(=O)NC(C)C(=O)NC(CCCNC(=N)N)C(=O)NC(CCCCN)C(N)=O (centres undefined) ([Mpa]AAWHSW[Ava]AQKARK-NH2; configuration not given here)', '> 100 µM'),
  ('CC(=O)/C=C1\CC(=O)N(C)c2ccccc2N1', '> 100 µM'),
  ('COc1ccc2c(=O)c(-c3cc(OC)c(OC)cc3OC)coc2c1', '> 100 µM'),
  ('Cc1cc(=O)[nH]c2cc(NC(=O)C(C)NC(=O)C(C)NC(=O)C(C)NC(=O)OC(C)(C)C)ccc12 (centres undefined)', '> 15 µM'),
  ('O=C(CC(C(=O)c1ccsc1)c1cccs1)c1ccccc1 (centres undefined)', '> 100 µM');

---

- Test system: NCI-H226 lung
- protocol.text: NCI tumour cell line growth inhibition, 48 h
GI50 overview
result.type: GI50

INSERT INTO results (molecule, result_type, reported_value) VALUES
  ('CNC(=O)[C@H](Cc1c[nH]c2ccccc12)NC(=O)[C@@H](CC(=O)NO)CC(C)C', 'GI50', '> 25 µM'),
  ('Cc1cccc(CNc2c3ccccc3nc3ccccc23)c1', 'GI50', '1.99 µM'),
  ('COc1ccc(-c2nc(NC(=O)CS(=O)(=O)c3ccc(F)cc3)sc2C)cc1', 'GI50', '23.8 µM'),
  ('COc1ccc(-n2cc(-c3cc(OC)c(OC)c(OC)c3)nc2SCc2cccc(C#N)c2)cc1OC', 'GI50', '> 100 µM'),
  ('OCc1c(-c2cccs2)oc(-c2cccs2)c1CO', 'GI50', '50.3 µM'),
  ('CN[C@@H](C)C(=O)N[C@H](C(=O)N1CCC[C@H]1c1nc(C(=O)c2ccc(F)cc2)cs1)C1CCCCC1', 'GI50', '31.2 µM'),
  ('COc1cc(C[C@H]2COC(=O)[C@]2(O)Cc2ccc(OCc3ccccc3)c(OC)c2)ccc1OCc1ccccc1', 'GI50', '33.7 µM'),
  ('COc1ccc(Cn2cc3c(c2-c2ccccc2)CCc2cnoc2-3)cc1', 'GI50', '0.476 µM'),
  ('COc1ccc(-n2nc(C)c3c(Nc4ccc(NC(=O)Nc5cccc(C(F)(F)F)c5)cc4)ncnc32)cc1', 'GI50', '1.84 µM'),
  ('O=C(O)CCCN1C(=O)/C(=C/C(Cl)=C/c2ccccc2)SC1=S', 'GI50', '2.98 µM'),
  ('O=C1c2c(c3c4cc(F)ccc4oc3c3[nH]c4ccccc4c23)C(=O)N1O', 'GI50', '3.85 µM'),
  ('CN1CCN(C2=C(Cl)C(=O)c3ccccc3C2=O)CC1', 'GI50', '3.31 µM'),
  ('N#CC1=C(N)NC(=O)C(C#N)C12Nc1ccccc1S2 (stereo unspecified)', 'GI50', '41.3 µM'),
  ('O=[N+]([O-])c1ccccc1/C=N\NC(=S)N/N=C/c1ccccc1[N+](=O)[O-]', 'GI50', '75.4 µM'),
  ('CC(C)(C)OC(=O)N(CCCCN(CCCn1c2c(c3ccccc3c1=O)C(=O)c1ccccc1-2)C(=O)OC(C)(C)C)CCCn1c2c(c3ccccc3c1=O)C(=O)c1ccccc1-2', 'GI50', '99.2 µM'),
  ('CN(C)S(=O)(=O)c1cccc(C(=O)Nc2nc(-c3ccc(F)c(F)c3)cs2)c1', 'GI50', '9.32 µM');
